- target_entity: casein
- test_method_notes: cell-based or functional assay
outcome_measure: time required for the gelation of casein (min)
A number alone suffices; assume min.

Qu. Consider the binder shown here: S2D mutant MTG (Ser2 replaced with Asp, in Met type MTG), P81453 79-407 (enzyme) MDDDDRVTPPAEPLDRMPDPYRPSYGRAETVVNNYIRKWQQVYSHRDGRKQQMTEEQREWLSYGCVGVTWVNSGQYPTNRLAFASFDEDRFKNELKNGRPRSGETRAEFEGRVAKESFDEEKGFQRAREVASVMNRALENAHDESAYLDNLKKELANGNDALRNEDARSPFYSALRNTPSFKERNGGNHDPSRMKAVIYSKHFWSGQDRSSSADKRKYGDPDAFRPAPGTGLVDMSRDRNIPRSPTSPGEGFVNFDYGWFGAQTEADADKTVWTHGNHYHAPNGSLGAMHVYESKFRNWSEGYSDFDRGAYVITFIPKSWNTAPDKVKQGWP What is its recorded time required for the gelation of casein?
Ans. 95
